Target: Listeriolysin regulatory protein (Listeria monocytogenes serovar 1/2a (strain ATCC BAA-679 / EGD-e)) (UniProt P22262)
Sequence (P22262 whole entry): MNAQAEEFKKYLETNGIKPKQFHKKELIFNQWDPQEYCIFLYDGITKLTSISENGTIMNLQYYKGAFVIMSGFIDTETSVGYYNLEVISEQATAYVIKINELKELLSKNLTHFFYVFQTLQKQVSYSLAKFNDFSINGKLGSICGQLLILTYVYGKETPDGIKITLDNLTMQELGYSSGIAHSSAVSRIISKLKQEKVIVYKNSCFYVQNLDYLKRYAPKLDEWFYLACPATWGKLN
Assay: Inhibition of PrfA in Listeria monocytogenes EGD-e assessed as downregulation of LLO expression at 10 uM by Western blot method
The source made the active and inactive calls. The calls are words filed in the database; no cut-off is given here.
Assign a class; possible classes are TRUE for active, FALSE for inactive

Entry O=C(O)[C@@H]1CSc2c(C3CC3)c(Cc3cccc4ccccc34)cc(=O)n21 : call = ? TRUE

Which result was noted for this compound in the test: CN(C)c1c(Cc2cccc3ccccc23)cc(=O)n2c1SCC2C(=O)O.Cl (racemic) TRUE

Which outcome was entered for the compound Cc1cccc(Cc2cc(=O)n3c(c2N(C)C)SCC3C(=O)O)c1C (racemic) in this test? TRUE

How did this test come out for COc1c(Cc2cccc3ccccc23)cc(=O)n2c1SCC2C(=O)O (racemic) ? FALSE

Hello, the source for this data is ChEMBL document CHEMBL4177765, in case you need it.
